System: SK-MEL-28 melanoma
Experiment: NCI-60 one-dose screen, 48 h
Settings: 10 µM unless noted
Compounds without any hit were thinned out: in the full panel of roughly 83,000, 20% have a hit. Active and inactive are the calls of the source. Rule for the calls: active = growth percent below 10; inactive = the rest.
Outcomes: true = active, false = inactive

COMPOUND	ASSAY TARGET	ANSWER LABEL
Cc1ccc2nc3ccccc3c(NCc3ccccc3)c2c1	SK-MEL-28 melanoma	false
COC(=O)c1c2c(c[n+]([O-])c1C)C(=O)C=CC2=O	SK-MEL-28 melanoma	false
Oc1c(CN2CCCC2)cc(COCc2ccc(Br)cc2)c2cccnc12	SK-MEL-28 melanoma	false
O=C(Nc1cccc(Cl)c1)c1cc(N=Nc2ccc([N+](=O)[O-])cc2Cl)ccc1O	SK-MEL-28 melanoma	false
COc1ccc(N2CCN(c3nc(-c4cc(OC)c(OC)c(OC)c4)nc4ccccc34)CC2)cc1	SK-MEL-28 melanoma	false
COc1cccc(-c2nn(-c3ccccc3)cc2-c2ccnc(NCCCNC(=O)c3cccc(C(F)(F)F)c3)c2)c1	SK-MEL-28 melanoma	false
N=C1C(c2nc(-c3ccc(Br)cc3)cs2)=C(O)CN1Cc1cccnc1	SK-MEL-28 melanoma	false
CN(C)CCNc1nc2ccccc2c2c1c1c(n2Cc2ccccc2)-c2ccccc2C1=O	SK-MEL-28 melanoma	true
Cc1ccccc1NC(=O)N/C(N)=N/c1nc(-c2cccc([N+](=O)[O-])c2)cs1	SK-MEL-28 melanoma	false
O=c1ssc(Cl)c1-c1ccccc1	SK-MEL-28 melanoma	false
Cc1cccc(Cc2cnc(NC(=O)/C=C/c3ccco3)s2)c1	SK-MEL-28 melanoma	false
COc1cc(Cn2ncc3ccc(NC(=O)c4cc5ccccc5oc4=N)cc32)cc(OC)c1OC	SK-MEL-28 melanoma	false
COc1ccc(NC(=O)CSc2nnc(-c3cc(-c4ccccc4)nc4ccccc34)n2-c2ccccc2)cc1	SK-MEL-28 melanoma	false
CCOc1ccccc1-c1cc(-c2cccs2)c(C#N)c(=O)[nH]1	SK-MEL-28 melanoma	false
Cc1cc(NCc2cc(Nc3ccnc4cc(Cl)ccc34)ccc2F)nc(N2CCN(C)CC2)n1	SK-MEL-28 melanoma	true
Nc1n[nH]c(-c2cc(Cl)ccc2O)c1-c1ccccc1	SK-MEL-28 melanoma	false
OC(c1cccc(-n2ccc(C(F)(F)F)n2)c1)c1cnccc1NC1CCCCCC1 (stereo not drawn)	SK-MEL-28 melanoma	true
CCN(CCNc1ccc(C)c2sc3ccccc3c(=O)c12)CC(C)(C)O	SK-MEL-28 melanoma	false
Cc1c(O)cc(-c2cnc(N/N=C\c3ccc(Cl)cc3)s2)c(O)c1C	SK-MEL-28 melanoma	false
Cc1nc2ccccc2n1CC1NC(=O)NC1=O (stereo not drawn)	SK-MEL-28 melanoma	false
Cn1cc(-c2csc(-c3cccc(F)c3)n2)c2cccnc21	SK-MEL-28 melanoma	true
O=C(c1ccccc1)c1c(/C=C/c2ccc(Cl)cc2)nc2ccccc2c1/C=C/c1cccs1	SK-MEL-28 melanoma	false
Nc1ccc2c(c1)c(N)nn2C(=O)Nc1ccc(Cc2ccccc2)cc1	SK-MEL-28 melanoma	false
N#CC1=C(NC=O)Oc2c(ccc3ccccc23)C1c1ccccc1 (stereo not drawn)	SK-MEL-28 melanoma	false
CCCCCS(=O)(=O)Nc1ccc(C(=O)O)cc1	SK-MEL-28 melanoma	false
Cc1ccc(/C=C2\C(=O)N(C)c3ccc(S(=O)(=O)Nc4ccc(C(C)(C)C)cc4)cc32)s1	SK-MEL-28 melanoma	false
COc1cc2c(cc1-c1c(C)noc1C)ncc1nc(C3CCCCC3)n(C3CCC(OC(F)F)CC3)c12 (stereo not drawn)	SK-MEL-28 melanoma	false
CC1O[C@@H](OC2[C@H](OC(=O)/C=C/c3ccc(O)c(O)c3)C(COC3O[C@H](C)C(O)C(O)[C@@H]3O)O[C@@H](OCCc3ccc(O)c(O)c3)[C@H]2O)[C@@H](O)C(O)[C@H]1O (stereo partly drawn)	SK-MEL-28 melanoma	false
